# koff listing for each entry below
target: T1, cynomolgus soluble urokinase plasminogen activator receptor (cynomolgus suPAR) (cynomolgus, UniProt Q9GK78 23-303, limits assumed); experiment: off-rate screen of scFv clones (kdis), Octet BLI
T1 construct: also called cynomolgus uPAR; cynoPLAUR-His
T1 sequence (Q9GK78 23-303 limits assumed): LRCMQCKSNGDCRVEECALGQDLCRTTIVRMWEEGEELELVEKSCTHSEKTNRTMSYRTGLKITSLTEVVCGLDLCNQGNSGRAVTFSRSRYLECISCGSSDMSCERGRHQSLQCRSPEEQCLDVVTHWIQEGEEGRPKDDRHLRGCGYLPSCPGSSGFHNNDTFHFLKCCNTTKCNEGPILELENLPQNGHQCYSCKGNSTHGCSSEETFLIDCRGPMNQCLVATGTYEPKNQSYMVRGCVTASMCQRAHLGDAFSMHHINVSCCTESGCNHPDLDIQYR

{"binder": "suPAR_DB04_D08 (scFv, V domains shown, scFv clone from phage display) VH: QVQLVQSGAEVKKPGASVKVSCKASGYTLSGYYMHWVRQAPGQGLEWMGWIDPNSGATNDAPKFQGRVTMTRDTSTSTVYMELSSLRSEDTAVYYCARGYDVDWFVYWGQGTLVTVSS VL: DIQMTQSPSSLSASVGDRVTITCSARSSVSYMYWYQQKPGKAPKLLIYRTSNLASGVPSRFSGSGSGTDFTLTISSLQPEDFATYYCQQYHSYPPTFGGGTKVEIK", "koff / s⁻¹": 0.000343}
{"binder": "suPAR_DB04_F08 (scFv, V domains shown, scFv clone from phage display) VH: QVQLVQSGAEVKKPGASVKVSCKASGGTFTSYYMHWVRQAPGQGLEWMGWIDHSNGSTSYAQEFQGRVTMTRDTSTSTVYMELSSLRSEDTAVYYCARGYDVDWFVYWGQGTLVTVSS VL: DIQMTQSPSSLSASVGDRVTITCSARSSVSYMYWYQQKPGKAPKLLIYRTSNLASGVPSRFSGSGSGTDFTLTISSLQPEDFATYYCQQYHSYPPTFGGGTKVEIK", "koff / s⁻¹": "4.31e-05"}
{"binder": "suPAR_DB04_E10 (scFv, V domains shown, scFv clone from phage display) VH: QVQLVQSGAEVKKPGASVKVSCKASGYTFSSYYFHWVRQAPGQGLEWMGWIDPNTGDTIYAQKFQGRVTMTRDTSTSTVYMELSSLRSEDTAVYYCARGYDVDWFVYWGQGTLVTVSS VL: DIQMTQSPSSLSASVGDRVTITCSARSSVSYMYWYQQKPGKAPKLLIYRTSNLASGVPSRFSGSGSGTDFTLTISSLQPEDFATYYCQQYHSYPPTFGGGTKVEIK", "koff / s⁻¹": 0.000142}
{"binder": "suPAR_DB04_E04 (scFv, V domains shown, scFv clone from phage display) VH: QVQLVQSGAEVKKPGASVKVSCKASGYTFTSYYVHWVRQAPGQGLEWMGWIDHENGNTIYDQKFQGRVTMTRDTSTSTVYMELSSLRSEDTAVYYCARGTDVDWFVYWGQGTLVTVSS VL: DIQMTQSPSSLSASVGDRVTITCRARQSVSYMYWYQQKPGKAPKLLIYRTSNLASGVPSRFSGSGSGTDFTLTISSLQPEDFATYYCQQYHSYPPTFGGGTKVEIK", "koff / s⁻¹": 0.000451}
{"binder": "suPAR_DB04_C12 (scFv, V domains shown, scFv clone from phage display) VH: QVQLVQSGAEVKKPGASVKVSCKASGHTITSYYMHWVRQAPGQGLEWMGWIDHENGSTIYAQKFQGRVTMTRDTSTSTVYMELSSLRSEDTAVYYCARGYDVDWFVYWGQGTLVTVSS VL: DIQMTQSPSSLSASVGDRVTITCRASSSVSYMYWYQQKPGKAPKLLIYRTSNLASGVPSRFSGSGSGTDFTLTISSLQPEDFATYYCQQYHSYPPTFGGGTKVEIK", "koff / s⁻¹": 0.000255}
{"binder": "suPAR_DB04_C06 (scFv, V domains shown, scFv clone from phage display) VH: QVQLVQSGAEVKKPGASVKVSCKASGYTFSAYYIHWVRQAPGQGLEWMGWIDHENGNTIYDQKFQGRVTMTRDTSTSTVYMELSSLRSEDTAVYYCARGNDVDWFVYWGQGTLVTVSS VL: DIQMTQSPSSLSASVGDRVTITCSARQSVSYMYWYQQKPGKAPKLLIYRTSNLQSGVPSRFSGSGSGTDFTLTISSLQPEDFATYYCQQYHSYPPTFGGGTKVEIK", "koff / s⁻¹": "4.14e-05"}
{"binder": "suPAR_DB04_F11 (scFv, V domains shown, scFv clone from phage display) VH: QVQLVQSGAEVKKPGASVKVSCKASGYTFTSHYMHWVRQAPGQGLEWMGWIDHEGGNTSYAQKFQGRVTMTRDTSTSTVYMELSSLRSEDTAVYYCARGYDVDWFVYWGQGTLVTVSS VL: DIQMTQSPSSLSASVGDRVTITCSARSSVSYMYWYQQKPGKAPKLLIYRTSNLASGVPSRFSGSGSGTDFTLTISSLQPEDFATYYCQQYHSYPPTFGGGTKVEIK", "koff / s⁻¹": 0.000121}
{"binder": "suPAR_DB04_G11 (scFv, V domains shown, scFv clone from phage display) VH: QVQLVQSGAEVKKPGASVKVSCKASGFTFKDYYIHWVRQAPGQGLEWMGWIDPDSGGTNYAQKFQGRVTMTRDTSTSTVYMELSSLRSEDTAVYYCARGYDVDWFVYWGQGTLVTVSS VL: DIQMTQSPSSLSASVGDRVTITCSARQSVSYMYWYQQKPGKAPKLLIYRTSNLASGVPSRFSGSGSGTDFTLTISSLQPEDFATYYCQQYHSYPPTFGGGTKVEIK", "koff / s⁻¹": 0.00021}
{"binder": "suPAR_DB04_C04 (scFv, V domains shown, scFv clone from phage display) VH: QVQLVQSGAEVKKPGASVKVSCKASGYTFTGYYMHWVRQAPGQGLEWMGWIDHENGNTSYDQKFQGRVTMTRDTSTSTVYMELSSLRSEDTAVYYCARGYDVDWFVYWGQGTLVTVSS VL: DIQMTQSPSSLSASVGDRVTITCSASQSVSYMYWYQQKPGKAPKLLIYRTSNLASGVPSRFSGSGSGTDFTLTISSLQPEDFATYYCQQYHSYPPTFGGGTKVEIK", "koff / s⁻¹": 0.000384}
{"binder": "suPAR_DB04_F06 (scFv, V domains shown, scFv clone from phage display) VH: QVQLVQSGAEVKKPGASVKVSCKASGYTFTGYYMHWVRQAPGQGLEWMGWIDHENGNTSYAQKFQGRVTMTRDTSTSTVYMELSSLRSEDTAVYYCARGYDVDWFVYWGQGTLVTVSS VL: DIQMTQSPSSLSASVGDRVTITCSARQSISYMYWYQQKPGKAPKLLIYRTSNLASGVPSRFSGSGSGTDFTLTISSLQPEDFATYYCQQYHSYPPTFGGGTKVEIK", "koff / s⁻¹": 0.000195}
